Tested on: SNB-75 CNS
experiment-summary: NCI tumour cell line growth inhibition, 48 h
readout-label: TGI

Previously resolved entries follow.
> print(dat)
                                   compound  subject.of.test    result
1       COc1cc(CNC(=S)CCCCCCCCCCC(C)C)ccc1O       SNB-75 CNS  > 100 µM
2          CCCCCCNC(=O)n1cc(F)c(=O)[nH]c1=O       SNB-75 CNS     43 µM
3               CC(C)(C)C(=O)N1CCN(C=O)C1=S       SNB-75 CNS   90.6 µM
4  CN(C)CCNC(=O)c1cc(NC(=O)c2cc(NC(=O)CC/C=C3/[C@@H]4CC[C@H]3N=N4)cn2C)cn1C       SNB-75 CNS  > 100 µM
5  Cc1c(C(=O)CC(=O)C(=O)Nc2cc(Cl)ccc2Cl)[n+](=O)c2ccccc2n1[O-]       SNB-75 CNS   78.1 µM

Now for the compound whose TGI we want.
Problem: Field request: TGI | item: `COc1cc2c(c(OC)c1)C(=O)O[C@H](C)CCCC/C=C/C2`
Solution: > 32.8 µM

This collection of values is drawn from PubChem BioAssay (NCI).
